Please go through the items and note down their solvation free energy, 298 K.
assay: solvent given as SMILES; conditions: in CCCCCCCCO
One number for each entry, in kcal/mol.

Example entries and their recorded answers appear below.
N#Cc1ccccc1: -6
CC(=O)OC(C)C: -3.99
CC(C)C(C)C(C)C: -4.33
CC(C)=O: -3.14
CCOCC: -2.99
CCCOC=O: -3.64

Can you give me solvation free energy, 298 K for all of these, one by one?
1. C1CCOC1
2. c1ccc2cc3ccccc3cc2c1

1: -3.9; 2: -10.3

====

assay: solvent given as SMILES; conditions: in CCOCCO
# binning rule on solvation free energy, 298 K: low class: < -10 kcal/mol; middle class: ≥ -10 kcal/mol and < -4 kcal/mol; high class: ≥ -4 kcal/mol

c1cc2ccc3cccc4ccc(c1)c2c34: low class
CCCCCC: high class
CCO: middle class
COc1ccc(C(=O)O)cc1: low class
c1ccc(-c2ccccc2)cc1: middle class

Kindly identify the class of NC(=O)c1ccccc1O . low class

Lab log: CCCCCCC — assign solvation free energy, 298 K category high class

Lab note: which band did CCOC(C)=O land in? middle class

Could you place c1ccc2cc3ccccc3cc2c1 in its proper category? Many thanks. low class

====

assay: solvent given as SMILES; conditions: in O
The recorded solvation free energy, 298 K of each item maps onto one of these classes: class 0 = under -5 kcal/mol, class 1 = from -5 kcal/mol up to -2 kcal/mol, class 2 = -2 kcal/mol and over

CCOP(=O)(OCC)OCC: class 0
Cc1ccccc1C(C)C: class 2
C=C(Cl)Cl: class 2
CC(F)F: class 2
Cc1cccc(O)c1C: class 0

Which class holds OCCc1ccccc1 ? class 0

====

Consider the following molecules; for each one, report its solvation free energy, 298 K.
test: solvent given as SMILES; conditions: in CC(=O)c1ccccc1
One number for each entry, in kcal/mol.

CCCCCCC: -3.69
CCCCCC: -3.04
CC=C(C)C: -2.79

State recorded solvation free energy, 298 K for all listed molecules.
1. C[N+](=O)[O-]
2. CC(C)CCC(C)C
3. CCO
4. CCCCCCCCC
5. CC(C)C(C)C(C)C

-4.89
-3.84
-4.04
-4.92
-3.96

Value sought for every listed molecule: solvation free energy, 298 K.
1. CCCCC
2. CCI
3. CCCCCCCC

1. -2.43
2. -4.05
3. -4.29

====

assay: solvent given as SMILES; conditions: in CCCC#N
Parameter threshold = -4 kcal/mol. Response is Criterion met when solvation free energy, 298 K meets or exceeds it, else Criterion not met.

CCCCC: Criterion met

Please tell me: is the compound CC(C)C(C)C(C)C at or over -4 kcal/mol in terms of solvation free energy, 298 K? Criterion not met

Decide: is the reported value of solvation free energy, 298 K for CCCCCC equal to or greater than -4 kcal/mol? Criterion met

Kindly determine if solvation free energy, 298 K recorded for CCCCCCC is above or exactly -4 kcal/mol. Criterion met

Record CCc1ccccc1 ; criterion: solvation free energy, 298 K no lower than -4 kcal/mol. Met? Criterion not met

Decide: is the reported value of solvation free energy, 298 K for CCCCCCCC equal to or greater than -4 kcal/mol? Criterion not met

Answer whether solvation free energy, 298 K of CCCCCCCCC is greater than or equal to -4 kcal/mol. Criterion not met

Hello, I need to know if C[N+](=O)[O-] has measured solvation free energy, 298 K not below -4 kcal/mol. Thanks! Criterion not met

====

test: solvent given as SMILES; settings: in FC(F)(F)C(F)(F)C(F)(F)C(F)(F)C(F)(F)C(F)(F)C(F)(F)C(F)(F)F
Observable: solvation free energy, 298 K (kcal/mol)
One number for each entry, in kcal/mol.

Sample answers from the record:
CCCCC: -2.06
CCCCCC: -2.53
CCCCCCC: -2.98
CC(C)C(C)C(C)C: -3.34
CCCCCCCCC: -3.92
CC(C)CCC(C)C: -3.22

Consider the additional compound presented here.
Indicate its recorded solvation free energy, 298 K; the compound in question is CCCCCCCC -3.45

====

assay: solvent given as SMILES; conditions: in OCCOCCO
Exercise: state measured solvation free energy, 298 K for each of the compounds provided.
Numbers only, in kcal/mol.

Sample answers from the record:
CCCCC: -0.86
CCO: -4.56

Record solvation free energy, 298 K per entry; entries follow.
1. CCCCCCCCC
2. C=C(C)CC(C)(C)C
3. CCCCC1CCCCC1
4. CCCCCCC

-2.76
-2.19
-3.78
-1.9

Give solvation free energy, 298 K for each listed item.
1. CCCCCCCCCCCCCCCC
2. CC(C)c1ccccc1
3. CCCCCC
4. CC(=O)CC(C)C

1. -5.77
2. -4.43
3. -1.43
4. -4.21

Here are 5 compounds. What values of solvation free energy, 298 K were reported for them?
1. CCCCCCCC
2. Cc1cccc2ccccc12
3. CCc1ccccc1
4. CC(C)=O
5. CCOC(C)=O

1: -2.35; 2: -7.33; 3: -4.15; 4: -3.32; 5: -3.53

====

test: solvent given as SMILES; conditions: in CCC(C)(C)O
Observable: solvation free energy, 298 K (kcal/mol)
Answers are plain numbers, in kcal/mol.

Examples with their reported solvation free energy, 298 K follow.
c1cc2ccc3cccc4ccc(c1)c2c34: -11.5
C=CC: -1.39
C=C(C)C: -2.09
c1ccc2cc3ccccc3cc2c1: -9.99
c1ccc(-c2ccccc2)cc1: -8.3

In the following, a different compound is considered.
Return the recorded solvation free energy, 298 K value; entry: CC(F)F -1.36

====

assay: solvent given as SMILES; details: in O
Observable: solvation free energy, 298 K (kcal/mol)
One number for each entry, in kcal/mol.

Clc1c(Cl)c(Cl)c(-c2c(Cl)c(Cl)c(Cl)c(Cl)c2Cl)c(Cl)c1Cl: -3.05
COc1cc(C)ccc1O: -5.8
ClCCCCl: -1.89
CCCCCCO: -4.4
CCCOCCOC(=O)c1ccccc1C(=O)OCCOCCC: -13.2
CC(C)C1=CC2=CCC3C(C)(C)CCCC3(C)C2CC1 (stereo unspecified): -0.08
CCCCCC(=O)O: -6.11
O=c1[nH]cc(Cl)c(=O)[nH]1: -17.7
C=CC1(C)CCC(C(C)C)=CC1C(=C)C (stereo unspecified): -0.42
Oc1ccc(Cl)cc1Cl: -4.98

Batch request: solvation free energy, 298 K for each of the following molecules.
1. O=c1[nH]cc(F)c(=O)[nH]1
2. FC(F)C(F)(F)F
3. CCCCl

[-16.9, 1.45, -0.37]

For each of the items listed, what is its solvation free energy, 298 K?
1. COC(=O)C(F)(F)F
2. ClC1=C(Cl)C2(Cl)C3C4C=CC(C4)C3C1(Cl)C2(Cl)Cl (stereo unspecified)
3. Cc1cccc(C)c1C
4. Cc1ccccc1O
5. CC(C)(C)OC(=O)c1ccccc1C(=O)OC(C)(C)C

-1.1
-3.75
-1.15
-5.85
-7.09

I need solvation free energy, 298 K for every entry listed below, if you could help.
1. C1CC1
2. CC1CCC2(C(C)C)CC12 (stereo unspecified)
3. CC=C(C)C
4. CC(C)=O
5. Oc1ccccc1O
6. O=[N+]([O-])c1cccc2ccccc12
7. c1cc2ccc3cccc4ccc(c1)c2c34

1: 0.75; 2: 1.13; 3: 1.37; 4: -3.84; 5: -9.82; 6: -5.65; 7: -4.77

====

test: solvent given as SMILES; settings: in ClC(Cl)Cl
Observable: solvation free energy, 298 K (kcal/mol)
Answers are plain numbers, in kcal/mol.

For each of the items listed, what is its solvation free energy, 298 K?
1. c1ccc2cc3ccccc3cc2c1
2. CCCCCCCC
3. CC(Cl)(Cl)Cl
4. C[N+](=O)[O-]
5. CC(C)=O

1: -11.5; 2: -5.32; 3: -4.42; 4: -4.64; 5: -4.67

Below are some molecules; for each one, tell me its solvation free energy, 298 K.
1. CCI
2. CCCCCCCCC
3. CC(C)C(C)C(C)C
4. CSC
5. ClCC(Cl)Cl
6. CCCCC
7. c1cc2ccc3cccc4ccc(c1)c2c34

[-4.44, -6.04, -4.98, -4.08, -5.28, -3.23, -13.2]

Dear colleague, could you send me solvation free energy, 298 K for each of the items below? Thanks.
1. C1CCOC1
2. CCCCCC
3. CC(C)CCC(C)C
4. CCCCl

-5.12
-3.94
-4.88
-3.62

Kindly give each listed record's solvation free energy, 298 K.
1. CCO
2. CI
3. Oc1ccc2ccccc2c1
4. CCCCCCC
5. CC#N

1: -3.96; 2: -3.78; 3: -10.5; 4: -4.64; 5: -4.43
